- TARGET_SYSTEM: T1, NOVA1hu (humanized) (UniProt Q9JKN6 1-507, I197V)
- T1 sequence: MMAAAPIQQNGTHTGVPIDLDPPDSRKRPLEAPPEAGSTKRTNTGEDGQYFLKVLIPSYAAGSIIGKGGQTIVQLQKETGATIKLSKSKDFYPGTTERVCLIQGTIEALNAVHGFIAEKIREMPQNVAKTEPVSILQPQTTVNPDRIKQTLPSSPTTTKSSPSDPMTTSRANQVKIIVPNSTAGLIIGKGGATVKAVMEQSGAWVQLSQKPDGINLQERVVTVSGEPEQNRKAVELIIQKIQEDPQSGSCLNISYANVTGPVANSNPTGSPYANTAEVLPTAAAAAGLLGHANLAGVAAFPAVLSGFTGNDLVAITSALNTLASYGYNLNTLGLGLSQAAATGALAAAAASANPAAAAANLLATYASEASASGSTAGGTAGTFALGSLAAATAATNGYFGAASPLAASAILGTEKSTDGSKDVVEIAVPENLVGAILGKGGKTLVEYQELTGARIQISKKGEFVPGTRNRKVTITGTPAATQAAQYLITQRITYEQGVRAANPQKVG
- PROTOCOL_TEXT: EMSA; text prints 105.83 ± 8.3; figure and source data 105.3; 10 mM HEPES (pH not stated), 3 mM MgCl2, 150 mM NaCl, 5% glycerol, 0.1 mM DTT, 0.1 U/ul RNase OUT, 10 mg/ml yeast tRNA, 1 mg/ml poly dI-dC, 22 C, 60 min; protein 0.5-2 pmol, RNA 0.08 pmol per reaction; 8% native gel
- CONDITION_CONTEXT: protein: recombinant; tags: GST tag (N-term) cleaved by PreScission; pGEX6p1 remnant; label: 32P; hairpin
REPORTED_METRIC: Kd (nM)
Give bare numbers, in nM.

Please fill in: Kd reported for UCAU RNA probe (stem-loop) (structured_RNA) RNA: CCUUAUCAUGCUGACUCACGUCAUUUCAUCUCAUCAAGGGAGUCAGUGGGAUA = 105
